Target or system S. agalactiae (SaGUS) β-Glucuronidase (Streptococcus agalactiae serotype V): recorded IC50 listed per item.
QUANTITY: IC50 (nM)

molecule=CNc1nc(N2CCNCC2)c2sc3nc(N4CCOCC4)ccc3c2n1 assay_target="S. agalactiae (SaGUS) β-Glucuronidase (Streptococcus agalactiae serotype V)" readout_number=340
molecule=C[C@H]1CN(c2nnnc3c2sc2nc(N4CCOCC4)c4c(c23)CCCC4)CCN1 assay_target="S. agalactiae (SaGUS) β-Glucuronidase (Streptococcus agalactiae serotype V)" readout_number=550
molecule=c1ccc(-c2ccc3c(n2)sc2c(N4CCNCC4)nnnc23)cc1 assay_target="S. agalactiae (SaGUS) β-Glucuronidase (Streptococcus agalactiae serotype V)" readout_number=700
molecule=C1CCN(c2nc3sc4c(N5CCNCC5)nnnc4c3c3c2CCCC3)CC1 assay_target="S. agalactiae (SaGUS) β-Glucuronidase (Streptococcus agalactiae serotype V)" readout_number=180
molecule=CNc1ccc2c(n1)sc1c(N3CCNCC3)nc(NC)nc12 assay_target="S. agalactiae (SaGUS) β-Glucuronidase (Streptococcus agalactiae serotype V)" readout_number=550
molecule=CN(C)c1ccc2c(n1)sc1c(N3CCNCC3)nnnc12 assay_target="S. agalactiae (SaGUS) β-Glucuronidase (Streptococcus agalactiae serotype V)" readout_number=1000
molecule=CN(C)c1nc(N2CCNCC2)c2sc3nc(-c4ccccc4)ccc3c2n1 assay_target="S. agalactiae (SaGUS) β-Glucuronidase (Streptococcus agalactiae serotype V)" readout_number=270
molecule=c1ccc(-c2ccc3c(n2)sc2c(N4CCNCC4)ncnc23)cc1 assay_target="S. agalactiae (SaGUS) β-Glucuronidase (Streptococcus agalactiae serotype V)" readout_number=550
molecule=c1nc(N2CCNCC2)c2sc3nc(N4CCOCC4)ccc3c2n1 assay_target="S. agalactiae (SaGUS) β-Glucuronidase (Streptococcus agalactiae serotype V)" readout_number=690
molecule=C1CCc2c(c(N3CCOCC3)nc3sc4c(NC5CCNCC5)nnnc4c23)C1 assay_target="S. agalactiae (SaGUS) β-Glucuronidase (Streptococcus agalactiae serotype V)" readout_number=70000
molecule="C1CCc2c(c(N3CCOCC3)nc3sc4c(N5CCNCC5)nnnc4c23)C1 [Inh9, reference compound]" assay_target="S. agalactiae (SaGUS) β-Glucuronidase (Streptococcus agalactiae serotype V)" readout_number=117
molecule=c1ccc(CNc2nc3sc4c(N5CCNCC5)nnnc4c3c3c2CCCC3)cc1 assay_target="S. agalactiae (SaGUS) β-Glucuronidase (Streptococcus agalactiae serotype V)" readout_number=90
molecule=CN1CCN(c2nnnc3c2sc2nc(N4CCOCC4)c4c(c23)CCCC4)CC1 assay_target="S. agalactiae (SaGUS) β-Glucuronidase (Streptococcus agalactiae serotype V)" readout_number=22000
molecule=CNc1nc2sc3c(N4CCNCC4)nnnc3c2c2c1CCCC2 assay_target="S. agalactiae (SaGUS) β-Glucuronidase (Streptococcus agalactiae serotype V)" readout_number=39
molecule=CNc1nc(N2CCNCC2)c2sc3nc(-c4ccccc4)ccc3c2n1 assay_target="S. agalactiae (SaGUS) β-Glucuronidase (Streptococcus agalactiae serotype V)" readout_number=480
molecule="C1CCc2c(c(N3CCOCC3)nc3sc4c(N5CC6CC5CN6)nnnc4c23)C1 (stereo not drawn)" assay_target="S. agalactiae (SaGUS) β-Glucuronidase (Streptococcus agalactiae serotype V)" readout_number=2700
molecule=C1CCc2c(c(N3CCNCC3)nc3sc4c(N5CCNCC5)nnnc4c23)C1 assay_target="S. agalactiae (SaGUS) β-Glucuronidase (Streptococcus agalactiae serotype V)" readout_number=63
molecule=CNc1nc(N2CCNCC2)c2sc3ncccc3c2n1 assay_target="S. agalactiae (SaGUS) β-Glucuronidase (Streptococcus agalactiae serotype V)" readout_number=2000

* * *

ASSAY_TARGET: UniProtKB Q8E0N2
pIC50: −log10 of the molar value.
QUANTITY: pIC50

smiles=c1cnc2sc3c(N4CCNCC4)ncnc3c2c1 assay_target="UniProtKB Q8E0N2" readout_number=5.52
smiles=C1CCC(Nc2nc3sc4c(N5CCNCC5)nnnc4c3c3c2CCCC3)CC1 assay_target="UniProtKB Q8E0N2" readout_number=6.49
smiles=OCCNc1nc(N2CCNCC2)c2sc3nc(-c4ccccc4)ccc3c2n1 assay_target="UniProtKB Q8E0N2" readout_number=6.31
smiles=c1cc2c(nc1N1CCOCC1)sc1c(N3CCNCC3)nnnc12 assay_target="UniProtKB Q8E0N2" readout_number=6.19
smiles=C1CCc2c(c(N3CCOCC3)nc3sc4c(N5CCCNCC5)nnnc4c23)C1 assay_target="UniProtKB Q8E0N2" readout_number=5.30
smiles=CNc1nc(N2CCNCC2)c2sc3nc(N(C)C)ccc3c2n1 assay_target="UniProtKB Q8E0N2" readout_number=6.30
smiles=C[C@@H]1CN(c2nnnc3c2sc2nc(N4CCOCC4)c4c(c23)CCCC4)CCN1 assay_target="UniProtKB Q8E0N2" readout_number=6.26
smiles=CN(C)c1nc2sc3c(N4CCNCC4)nnnc3c2c2c1CCCC2 assay_target="UniProtKB Q8E0N2" readout_number=7.21
smiles=NN1CCN(c2nnnc3c2sc2nc(N4CCOCC4)c4c(c23)CCCC4)CC1 assay_target="UniProtKB Q8E0N2" readout_number=5.17

* * *

Below, each of the molecules is paired with its reported pIC50 value.
ASSAY_TARGET: C. perfringens (CpGUS) β-Glucuronidase (Clostridium perfringens, UniProt Q8XP19)
Sequence (Q8XP19 whole entry, looked up): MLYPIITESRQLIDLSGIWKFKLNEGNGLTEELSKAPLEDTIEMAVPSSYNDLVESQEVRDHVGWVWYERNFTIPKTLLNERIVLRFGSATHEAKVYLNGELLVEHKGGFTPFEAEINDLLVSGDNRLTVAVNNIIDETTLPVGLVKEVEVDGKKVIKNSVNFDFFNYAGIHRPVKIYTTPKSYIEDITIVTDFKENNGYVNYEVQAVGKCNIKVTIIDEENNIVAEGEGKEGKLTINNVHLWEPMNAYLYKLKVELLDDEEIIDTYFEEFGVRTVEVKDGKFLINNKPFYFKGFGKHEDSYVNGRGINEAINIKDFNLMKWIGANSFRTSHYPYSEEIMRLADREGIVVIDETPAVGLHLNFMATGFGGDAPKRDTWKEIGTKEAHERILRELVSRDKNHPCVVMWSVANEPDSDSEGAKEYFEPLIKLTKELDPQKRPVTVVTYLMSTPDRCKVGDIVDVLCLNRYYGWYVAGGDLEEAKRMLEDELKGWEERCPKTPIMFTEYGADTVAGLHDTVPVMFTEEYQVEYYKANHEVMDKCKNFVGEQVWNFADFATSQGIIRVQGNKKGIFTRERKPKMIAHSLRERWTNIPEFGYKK
ASSAY_COMMENT: biochemical
pIC50: −log10 of the molar value.
QUANTITY: pIC50

molecule=CN(C)c1nc2sc3c(N4CCNCC4)nnnc3c2c2c1CCCC2 assay_target="C. perfringens (CpGUS) β-Glucuronidase (Clostridium perfringens, UniProt Q8XP19)" quantity=pIC50 readout_number=6.74
molecule=c1nc(N2CCNCC2)c2sc3nc(N4CCOCC4)ccc3c2n1 assay_target="C. perfringens (CpGUS) β-Glucuronidase (Clostridium perfringens, UniProt Q8XP19)" quantity=pIC50 readout_number=7.28
molecule=c1cnc2sc3c(N4CCNCC4)ncnc3c2c1 assay_target="C. perfringens (CpGUS) β-Glucuronidase (Clostridium perfringens, UniProt Q8XP19)" quantity=pIC50 readout_number=6.24
molecule=c1ccc(-c2ccc3c(n2)sc2c(N4CCNCC4)nnnc23)cc1 assay_target="C. perfringens (CpGUS) β-Glucuronidase (Clostridium perfringens, UniProt Q8XP19)" quantity=pIC50 readout_number=6.64
molecule=C1CCc2c(c(N3CCOCC3)nc3sc4c(N5CCCNCC5)nnnc4c23)C1 assay_target="C. perfringens (CpGUS) β-Glucuronidase (Clostridium perfringens, UniProt Q8XP19)" quantity=pIC50 readout_number=4.86
molecule=CN1CCN(c2nnnc3c2sc2nc(N4CCOCC4)c4c(c23)CCCC4)CC1 assay_target="C. perfringens (CpGUS) β-Glucuronidase (Clostridium perfringens, UniProt Q8XP19)" quantity=pIC50 readout_number=4.84
molecule=CNc1nc(N2CCNCC2)c2sc3nc(N4CCOCC4)ccc3c2n1 assay_target="C. perfringens (CpGUS) β-Glucuronidase (Clostridium perfringens, UniProt Q8XP19)" quantity=pIC50 readout_number=7.00
molecule="C1CCc2c(c(N3CCOCC3)nc3sc4c(N5CCNCC5)nnnc4c23)C1 [Inh9, reference compound]" assay_target="C. perfringens (CpGUS) β-Glucuronidase (Clostridium perfringens, UniProt Q8XP19)" quantity=pIC50 readout_number=6.81
molecule=C1CCc2c(c(N3CCOCC3)nc3sc4c(NC5CCNCC5)nnnc4c23)C1 assay_target="C. perfringens (CpGUS) β-Glucuronidase (Clostridium perfringens, UniProt Q8XP19)" quantity=pIC50 readout_number=5.24
molecule=CNc1ccc2c(n1)sc1c(N3CCNCC3)nc(NC)nc12 assay_target="C. perfringens (CpGUS) β-Glucuronidase (Clostridium perfringens, UniProt Q8XP19)" quantity=pIC50 readout_number=6.18
molecule=C1CCN(c2nc3sc4c(N5CCNCC5)nnnc4c3c3c2CCCC3)CC1 assay_target="C. perfringens (CpGUS) β-Glucuronidase (Clostridium perfringens, UniProt Q8XP19)" quantity=pIC50 readout_number=6.46
molecule=CN(C)c1ccc2c(n1)sc1c(N3CCNCC3)nnnc12 assay_target="C. perfringens (CpGUS) β-Glucuronidase (Clostridium perfringens, UniProt Q8XP19)" quantity=pIC50 readout_number=6.66
molecule=NN1CCN(c2nnnc3c2sc2nc(N4CCOCC4)c4c(c23)CCCC4)CC1 assay_target="C. perfringens (CpGUS) β-Glucuronidase (Clostridium perfringens, UniProt Q8XP19)" quantity=pIC50 readout_number=5.35
molecule=c1ccc(CNc2nc3sc4c(N5CCNCC5)nnnc4c3c3c2CCCC3)cc1 assay_target="C. perfringens (CpGUS) β-Glucuronidase (Clostridium perfringens, UniProt Q8XP19)" quantity=pIC50 readout_number=6.54
molecule="C1CCc2c(c(N3CCOCC3)nc3sc4c(N5CC6CC5CN6)nnnc4c23)C1 (centres unmarked)" assay_target="C. perfringens (CpGUS) β-Glucuronidase (Clostridium perfringens, UniProt Q8XP19)" quantity=pIC50 readout_number=5.35
molecule=CNc1nc(N2CCNCC2)c2sc3ncccc3c2n1 assay_target="C. perfringens (CpGUS) β-Glucuronidase (Clostridium perfringens, UniProt Q8XP19)" quantity=pIC50 readout_number=6.05
molecule=C1CCC(Nc2nc3sc4c(N5CCNCC5)nnnc4c3c3c2CCCC3)CC1 assay_target="C. perfringens (CpGUS) β-Glucuronidase (Clostridium perfringens, UniProt Q8XP19)" quantity=pIC50 readout_number=6.32
molecule=C1CCc2c(c(N3CCNCC3)nc3sc4c(N5CCNCC5)nnnc4c23)C1 assay_target="C. perfringens (CpGUS) β-Glucuronidase (Clostridium perfringens, UniProt Q8XP19)" quantity=pIC50 readout_number=6.92
molecule=CN(C)c1nc(N2CCNCC2)c2sc3nc(-c4ccccc4)ccc3c2n1 assay_target="C. perfringens (CpGUS) β-Glucuronidase (Clostridium perfringens, UniProt Q8XP19)" quantity=pIC50 readout_number=6.80
molecule=OCCNc1nc(N2CCNCC2)c2sc3nc(-c4ccccc4)ccc3c2n1 assay_target="C. perfringens (CpGUS) β-Glucuronidase (Clostridium perfringens, UniProt Q8XP19)" quantity=pIC50 readout_number=6.39
